- experimentNotes: Therapeutic index, ratio of IC50 for human H9 cells to EC50 for HIV1
- Type: cell-based
- assayContext: H9 cells, read-out: Ratio IC50/EC50
resultType: selectivity ratio
The answer should be a number; do not append a unit.

Looking up "C=C(C)[C@@H]1CC[C@]2(CO)CC[C@]3(C)[C@H](CC[C@@H]4[C@@]5(C)CC[C@H](O)C(C)(C)[C@@H]5CC[C@]43C)[C@@H]12" , I see its selectivity ratio listed as 1.9

Looking up "C=C(C)[C@@H]1CC[C@]2(C(=O)O)CC[C@]3(C)[C@H](CC[C@@H]4[C@@]5(C)CC[C@H](OC(=O)CC(C)(C)C(=O)O)C(C)(C)[C@@H]5CC[C@]43C)[C@@H]12" , I see its selectivity ratio listed as 20000
